Molecular target: EP2 (Homo sapiens);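 note: SF295 glioblastoma cells with endogenous EP2 only, PGE2-stimulated cAMP accumulation read by HTRF competitive immunoassay, 45 min pre-incubation then 30 min at room temperature, IBMX in buffer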
Threshold 80 nM. IC50 below it: 1.0. IC50 at it or above: 0.0.

These solved cases illustrate the format of a correct answer.
compound	measurement.target	assigned.category
CCn1cc(-c2cc(NCCc3c(F)cc(Br)cc3F)ncn2)cc1-c1noc(=O)[nH]1 [Example 278]	EP2 (Homo sapiens)	0.0
CCOc1cc(Br)ccc1CCNc1cc(-c2cc(OCC)c(-c3noc(=O)[nH]3)s2)ncn1 [Example 85]	EP2 (Homo sapiens)	1.0
CCOc1cc(-c2cc(NCCc3ccc(SC)cc3OC)ncn2)ccc1C(=O)O [Example 6]	EP2 (Homo sapiens)	0.0
CCOc1cc(-c2cc(NCCc3ccc(Cl)c(Cl)c3)ncn2)sc1-c1noc(=O)[nH]1 [Example 121]	EP2 (Homo sapiens)	1.0
COc1cc(C)c(C)cc1CCNc1cc(-c2ccc(C(=O)O)c(SC)c2)ncn1 [Example 3]	EP2 (Homo sapiens)	1.0

*Q* Take the compound CCOc1cc(-c2cc(NCCc3ccc(Br)c(Cl)c3)ncn2)sc1-c1noc(=O)[nH]1 [Example 106] and say whether its IC50 is less than 80 nM.
*A* 1.0

*Q* Take the compound CCc1nc(-c2cc(NCCc3c(F)cc(Br)cc3F)ncn2)sc1C(=O)O [Example 149] and say whether its IC50 is less than 80 nM.
*A* 1.0

*Q* Take the compound CCOc1cc(-c2cc(NCCc3ccc(Br)cc3)ncn2)sc1Cc1noc(=O)[nH]1 [Example 137] and say whether its IC50 is less than 80 nM.
*A* 0.0

*Q* Take the compound CCOc1cc(-c2cc(NCCc3c(F)cc(F)cc3F)ncn2)sc1-c1noc(=O)[nH]1 [Example 101] and say whether its IC50 is less than 80 nM.
*A* 1.0

*Q* Take the compound O=C(O)c1cccc2cc(-c3cc(NCCc4c(F)cc(Br)cc4F)ncn3)[nH]c12 [Example 263] and say whether its IC50 is less than 80 nM.
*A* 0.0

*Q* Take the compound CCOc1cc(-c2cc(NCCc3ccc(Br)cc3)ncn2)ccc1-c1noc(=O)[nH]1 [Example 15] and say whether its IC50 is less than 80 nM.
*A* 0.0

* * *

Target: EP4 (Homo sapiens, UniProt P35408)
Sequence (P35408 whole entry): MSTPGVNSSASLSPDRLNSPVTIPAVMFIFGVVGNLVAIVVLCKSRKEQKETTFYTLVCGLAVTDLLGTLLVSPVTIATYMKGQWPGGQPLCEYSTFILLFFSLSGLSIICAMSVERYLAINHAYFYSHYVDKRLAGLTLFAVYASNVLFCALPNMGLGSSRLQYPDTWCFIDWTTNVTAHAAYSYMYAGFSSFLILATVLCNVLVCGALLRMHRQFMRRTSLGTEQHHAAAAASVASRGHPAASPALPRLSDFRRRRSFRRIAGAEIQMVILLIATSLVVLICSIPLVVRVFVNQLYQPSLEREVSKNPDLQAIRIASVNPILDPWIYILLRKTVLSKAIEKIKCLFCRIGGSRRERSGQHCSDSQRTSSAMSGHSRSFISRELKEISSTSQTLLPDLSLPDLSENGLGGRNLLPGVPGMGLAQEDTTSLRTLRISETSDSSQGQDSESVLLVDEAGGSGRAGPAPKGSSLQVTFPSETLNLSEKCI
Threshold 100 nM. IC50 below it: True. IC50 at it or above: False.

These solved cases illustrate the format of a correct answer.
molecule	assigned.category
CCOc1cc(-c2cc(NCCc3ccc(Br)cc3)ncn2)sc1C(C)O (centres unmarked) [Example 145]	False
CCOc1cc(-c2cc(NCCc3cccc(Cl)c3)ncn2)sc1C(=O)O [Example 77]	False
CCc1cc(-c2cc(NCCc3c(F)cccc3F)ncn2)sc1C(=O)O [Example 53]	False
CCOc1cc(-c2cc(NCCc3c(F)cc(Cl)cc3OC)ncn2)sc1-c1noc(=O)[nH]1 [Example 86]	True
CCOc1cc(-c2cc(NCCc3c(F)cc(Br)cc3F)ncn2)ccc1C(=O)O [Example 180]	False
CCOc1cc(-c2cc(NCCc3ccc(Br)cc3)ncn2)sc1C(N)=O [Example 128]	False
CCOc1cc(-c2cc(NCCc3ccc(Br)cc3)ncn2)ccc1-c1noc(=O)[nH]1 [Example 15]	True
CC(C)Oc1cc(-c2cc(NCCc3c(F)cc(Br)cc3F)ncn2)sc1-c1noc(=O)[nH]1 [Example 162]	True

*Q* Take the molecule CCOc1cc(-c2cc(NCCc3ccc(Br)c(F)c3)ncn2)sc1-c1noc(=O)[nH]1 [Example 108] and say whether its IC50 is less than 100 nM.
*A* True

*Q* Take the molecule CCOc1cc(-c2cc(NCCc3ccc(Br)cc3)ncn2)ccc1C(=O)O [Example 11] and say whether its IC50 is less than 100 nM.
*A* False

*Q* Take the molecule CCOc1nc(-c2cc(NCCc3c(F)cc(Br)cc3F)ncn2)sc1-c1noc(=O)[nH]1 [Example 150] and say whether its IC50 is less than 100 nM.
*A* True

*Q* Take the molecule CCOc1cc(-c2cc(NCCc3ccccc3F)ncn2)sc1C(=O)O [Example 56] and say whether its IC50 is less than 100 nM.
*A* False

*Q* Take the molecule CCOc1cc(-c2cc(NCCc3ccc(OC)cc3OC)ncn2)sc1-c1noc(=O)[nH]1 [Example 116] and say whether its IC50 is less than 100 nM.
*A* True

*Q* Take the molecule O=C(O)c1[nH]c(-c2cc(NCCc3c(F)cc(Br)cc3F)ncn2)cc1C1CC1 [Example 271] and say whether its IC50 is less than 100 nM.
*A* False

*Q* Take the molecule CCOc1cc(-c2cc(NCCc3ccc(Br)c(Cl)c3)ncn2)sc1-c1noc(=O)[nH]1 [Example 106] and say whether its IC50 is less than 100 nM.
*A* True

*Q* Take the molecule CCOc1cc(-c2cc(NCCc3ccc(Br)cc3)nc(C)n2)sc1-c1noc(=O)[nH]1 [Example 157] and say whether its IC50 is less than 100 nM.
*A* True

*Q* Take the molecule CNc1cc(-c2cc(NCCc3c(F)cc(Br)cc3F)ncn2)ccc1C(=O)O [Example 231] and say whether its IC50 is less than 100 nM.
*A* True

* * *

Biological target: PTGER2 (EP2) (Homo sapiens)
Sequence (P43116 whole entry): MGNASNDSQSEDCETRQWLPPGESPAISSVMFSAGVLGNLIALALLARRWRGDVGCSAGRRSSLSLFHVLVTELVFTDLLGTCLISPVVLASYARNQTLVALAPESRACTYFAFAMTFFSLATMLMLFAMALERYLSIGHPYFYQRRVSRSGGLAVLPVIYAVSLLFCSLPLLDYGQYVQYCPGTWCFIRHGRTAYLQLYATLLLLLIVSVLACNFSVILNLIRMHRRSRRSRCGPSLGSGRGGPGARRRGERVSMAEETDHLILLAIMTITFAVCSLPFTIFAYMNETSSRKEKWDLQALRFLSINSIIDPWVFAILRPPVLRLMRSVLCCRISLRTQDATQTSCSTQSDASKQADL
pIC50: −log10 of the molar value.
Given measured pIC50, output 1.0 if it is greater than or equal to 7 and 0.0 if not.

These solved cases illustrate the format of a correct answer.
compound.structure.string	assigned.category
CCOc1cc(-c2cc(NCCc3c(F)ccc(F)c3Cl)ncn2)sc1-c1noc(=O)[nH]1	1.0
O=c1[nH]c(-c2ccc(-c3cc(NCCc4c(F)cc(Br)cc4F)ncn3)s2)no1	1.0
CCCOc1cc(Br)ccc1CCNc1cc(-c2cc(OCC)c(-c3noc(=O)[nH]3)s2)ncn1	1.0
CCCCOc1cc(-c2cc(NCCc3c(F)cc(Br)cc3F)ncn2)ccc1C(=O)O	1.0
CCc1cc(-c2cc(NCCc3c(F)cc(Br)cc3F)ncn2)cc(C)c1CC(=O)O	0.0

*Q* pIC50 >= 7 for `O=C(O)c1cccc2cc(-c3cc(NCCc4c(F)cc(Br)cc4F)ncn3)[nH]c12` ?
*A* 1.0

*Q* pIC50 >= 7 for `NC(=O)Nc1ccc(-c2cc(NCCc3c(F)cc(Br)cc3F)ncn2)cc1` ?
*A* 0.0

*Q* pIC50 >= 7 for `CCOc1cc(-c2cc(NCCc3ccc(C(F)(F)F)cc3OC(F)F)ncn2)sc1C(=O)O` ?
*A* 0.0

*Q* pIC50 >= 7 for `CCCc1cc(-c2cc(NCCc3c(F)cc(Br)cc3F)ncn2)ccc1C(=O)NCCOC` ?
*A* 0.0

*Q* pIC50 >= 7 for `CCc1cc(-c2cc(NCCc3c(F)cccc3F)ncn2)sc1C(=O)O` ?
*A* 0.0

*Q* pIC50 >= 7 for `CCOc1cc(-c2cc(NCCc3cc(F)c(Br)cc3F)ncn2)sc1-c1noc(=O)[nH]1` ?
*A* 1.0

*Q* pIC50 >= 7 for `Cc1cc(-c2cc(NCCc3c(F)cc(Br)cc3F)ncn2)cc(Cl)c1CC(=O)O` ?
*A* 0.0

*Q* pIC50 >= 7 for `Cc1ccc(CCNc2cc(-c3cc(F)c(C(=O)O)s3)ncn2)cc1` ?
*A* 0.0

* * *

Target: EP4 (Homo sapiens);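 note: inhibition of PGE2-evoked (6 nM) cAMP accumulation in BT549 breast cancer cells endogenously expressing EP4, cAMP read by HTRF competitive immunoassay after 30 min at room temperature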
pIC50: −log10 of the molar value.
Given measured pIC50, output Met if it is greater than or equal to 7 and Not met if not.

These solved cases illustrate the format of a correct answer.
molecule	assigned.category
O=c1[nH]c(-c2ccc(-c3cc(NCCc4ccc(Br)cc4)ncn3)cc2)no1 [Example 14]	Not met
O=C(O)c1ccc(-c2cc(NCCc3c(F)cc(Br)cc3F)ncn2)cc1OC1CCC1 [Example 42]	Not met
CCOc1cc(-c2cc(NCCc3c(F)ccc(F)c3Cl)ncn2)sc1-c1noc(=O)[nH]1 [Example 100]	Met
O=C(O)c1ccc2[nH]c(-c3cc(NCCc4c(F)cc(Br)cc4F)ncn3)cc2c1 [Example 168]	Not met

Shift focus to the following entry.
*Q* pIC50 >= 7 for CCCCOc1cc(-c2cc(NCCc3c(F)cc(Br)cc3F)ncn2)cc(F)c1C(=O)O [Example 167] ?
*A* Not met

* * *

Measured pIC50 (PTGER2 (EP2) (Homo sapiens, UniProt P43116))
When answering, recall that pIC50 equals minus log10 of the concentration in mol/L, and write that number alone.

Some entries whose results are on file:
compound.structure.string	pIC50
CCOc1cc(-c2cc(NCCc3cccc(OC)c3)ncn2)sc1C(=O)O	6.44
CCOc1cc(-c2cc(NCCc3c(F)cc(Cl)cc3OC)ncn2)sc1-c1noc(=O)[nH]1	7.80
CCOc1cc(-c2cc(NCCc3ccc(Cl)cc3[N+](=O)[O-])ncn2)sc1C(=O)O	6.95

Value (pIC50, PTGER2 (EP2) (Homo sapiens, UniProt P43116)) for record `Cc1cc(-c2cc(NCCc3c(F)cc(Br)cc3F)ncn2)ccc1CC(=O)O` = 6.12
